# Test system: HEK-293T
# procedure_details: Multiplex assay against HEK293T
# Type: toxicity, cell-based
# measurement_parameters: human, 48 h, 1 µM, compound concentration 1 uM, replicate 2
Below is a list of entries, each paired with its recorded Population Membrane Permeable-Phenotype (%) value.
result_type: Population Membrane Permeable-Phenotype (%)

compound	measurement
Cc1ccc(/C(=C\CN2CCCC2)c2ccccn2)cc1	1%
Cc1ccccc1C(=O)Nc1ccc(C(=O)N2CCCC(N(C)C)c3ccccc32)cc1.Cl (centres undefined)	0%
CN1CCN2c3ncccc3Cc3ccccc3C2C1 (centres undefined)	0%
O=S(=O)(c1ccccc1)c1cnc2c(N3CCNCC3)cccc2c1 [INTEPIRDINE]	0%

----------
# Tested on: U2OS
# procedure_details: Multiplex assay against U2OS
# Format: toxicity, cell-based
# measurement_parameters: human, 48 h, 1 µM, compound concentration 1 uM, replicate 2
result_type: Population Pyknosed Nuclei (%)

compound	unit_symbol	measurement
CN1CCN2c3ncccc3Cc3ccccc3C2C1 (centres undefined)	%	11
Cc1ccc(C(C)(O)c2nc3ccccc3s2)c(C)c1 (centres undefined)	%	8
O=C(NCCO)c1cccc(-c2cc(Nc3ccc(OC(F)(F)F)cc3)ncn2)c1	%	14
Cc1ccccc1C(=O)Nc1ccc(C(=O)N2CCCC(N(C)C)c3ccccc32)cc1.Cl (centres undefined)	%	12
N[C@@]1(C(=O)O)CO[C@H]2[C@H](C(=O)O)[C@H]21	%	12
C[C@H](NC(=O)c1c(C(F)F)nn(C)c1Oc1cccc(C(F)(F)F)c1)c1ccc(C(=O)O)cc1	%	13
O=C(O)Cc1ccccc1Nc1c(Cl)cccc1Cl	%	14
CSc1ccccc1N1CCN(CCCCCC(=O)NC2CCCc3ccccc32)CC1.Cl (centres undefined)	%	18
CCCn1c(=O)c2[nH]c(C3CCCC3)nc2n(CCC)c1=O	%	13
Cl.Clc1ccc2nsnc2c1NC1=NCCN1 [TIZANIDINE HYDROCHLORIDE]	%	8
Cc1nc2ccc(Oc3ccc(F)cc3)cc2c(=O)n1C[C@H]1CCCN(C(C)C)C1.Cl	%	7
Cc1ccc(/C(=C\CN2CCCC2)c2ccccn2)cc1	%	6
O=C1COc2nccc(-c3ccccc3F)c2CN1Cc1cc(C(F)(F)F)cc(C(F)(F)F)c1	%	10
CC(C)(C)c1ccc(S(=O)(=O)Nc2ccc(Cl)cc2C(=O)c2cc[n+]([O-])cc2)cc1	%	9
CN(C)c1ccnc2sc3c(=O)n(N4CCCCCC4)cnc3c12	%	11
C[C@@H]1C[C@H]2[C@@H]3CCC4=CC(=O)C=C[C@]4(C)[C@@]3(F)[C@@H](O)C[C@]2(C)[C@@]1(O)C(=O)CO	%	7
CN(C)CCCc1cc(C(=O)Nc2ccc(-c3ccncc3)cc2)ccc1O.Cl.Cl	%	13
CC(=O)NCCc1c(Cc2ccccc2)[nH]c2ccccc12	%	11
COc1ccc2c(c1)C(C(=O)N(Cc1ccc(N(C)C)cc1)c1ccc(C(C)C)cc1)CCC2.Cl (centres undefined)	%	8

----------
# Population Mitochondria Different-Phenotype (%) per entry
# System: Fibroblast
# procedure_details: Multiplex assay against human fibroblast
# Type: toxicity, cell-based
# measurement_parameters: 12 h, 10 µM, compound concentration 10 uM, replicate 1
result_type: Population Mitochondria Different-Phenotype (%)

molecule	measurement
CSCC[C@H](NC=O)C(=O)N[C@@H](CC(C)C)C(=O)N[C@@H](Cc1ccccc1)C(=O)O	5%
O=C(NCC(=O)N1CC[C@H](N[C@H]2CC[C@@](O)(c3ccc(-c4ncccn4)cn3)CC2)C1)c1cccc(C(F)(F)F)c1	11%
Cl.Clc1ccc2nsnc2c1NC1=NCCN1 [TIZANIDINE HYDROCHLORIDE]	8%
O=C1COc2nccc(-c3ccccc3F)c2CN1Cc1cc(C(F)(F)F)cc(C(F)(F)F)c1	10%
